// values below are reported ζ-Average (nm)
- PROTOCOL TEXT: Average particle size (ζ-Average) and PDI by dynamic light scattering (Zetasizer Nano ZSP)
- Assay type: physicochemical
- TEST CONTEXT: F7siRNA-loaded LNP, 50:10:38.5:1.5, N/P ratio 6
Unit nm implied. Number only.

The cases that follow already have their ζ-Average (nm) on record.
CCCCCCCCCCCCCCC(C)C(=O)OCCCCCCC(O)(CCCCCCOC(=O)C(C)CCCCCCCCCCCCCC)CCCCN(CCC)CCC (stereo not shown) : 64.81
CCCCC(CC)C(=O)OCCCCCCC(O)(CCCCCCOC(=O)C(CC)CCCC)CCCCN(CCC)CCC (stereo not shown) : 274.50
CCCCCCCC(CCCCCCC)C(=O)OCCCCCCC(O)(CCCCCCOC(=O)C(CCCCCCC)CCCCCCC)CCCCN(CCC)CCC : 97.03

Shifting focus to the compound that follows.
Input line: ζ-Average (nm) for CCCCCCCC/C=C\CCCCCCCC(=O)OCCCCCCC(O)(CCCCCCOC(=O)CCCCCCC/C=C\CCCCCCCC)CCCCOC(=O)C1CCN(C)CC1 [CL15H6, reference compound] ?
Output line: 123.50
